# tested.system: feline FcRn (FCN-F82W3, Acrobiosystems) (feline)
# assay.procedure: SPR Carterra, IgG coupled, pH 6.0
Recorded measurements of Kd, one per entry

{"binder": "anti-NGF feline IgG1a, Fc variant S426L, S428H (antibody, part only; not given: anti-NGF variable domains, light chain, not shown: another chain or arm of the molecule; small tags and cut ends) Fc: PPEMLGGPSIFIFPPKPKDTLSISRTPEVTCLVVDLGPDDSDVQITWFVDNTQVYTAKTSPREEQFNSTYRVVSVLPILHQDWLKGKEFKCKVNSKSLPSPIERTISKAKGQPHEPQVYVLPPAQEELSRNKVSVTCLIKSFHPPDIAVEWEITGQPEPENNYRTTPPQLDSDGTYFVYSKLSVDRSHWQRGNTYTCLVHHEALHSHHTQKSLTQSPGK", "unit.string": "nM", "Kd": 100}
{"binder": "anti-NGF feline IgG1a, Fc variant S252Y, Q311K (antibody, part only; not given: anti-NGF variable domains, light chain, not shown: another chain or arm of the molecule; small tags and cut ends) Fc: PPEMLGGPSIFIFPPKPKDTLYISRTPEVTCLVVDLGPDDSDVQITWFVDNTQVYTAKTSPREEQFNSTYRVVSVLPILHKDWLKGKEFKCKVNSKSLPSPIERTISKAKGQPHEPQVYVLPPAQEELSRNKVSVTCLIKSFHPPDIAVEWEITGQPEPENNYRTTPPQLDSDGTYFVYSKLSVDRSHWQRGNTYTCSVSHEALHSHHTQKSLTQSPGK", "unit.string": "nM", "Kd": 5.6}
{"binder": "anti-NGF feline IgG1a, Fc variant S252Y, Q311L (antibody, part only; not given: anti-NGF variable domains, not shown: another chain or arm of the molecule; small tags and cut ends) Fc: PPEMLGGPSIFIFPPKPKDTLYISRTPEVTCLVVDLGPDDSDVQITWFVDNTQVYTAKTSPREEQFNSTYRVVSVLPILHLDWLKGKEFKCKVNSKSLPSPIERTISKAKGQPHEPQVYVLPPAQEELSRNKVSVTCLIKSFHPPDIAVEWEITGQPEPENNYRTTPPQLDSDGTYFVYSKLSVDRSHWQRGNTYTCSVSHEALHSHHTQKSLTQSPGK", "unit.string": "nM", "Kd": 7}
{"binder": "anti-NGF feline IgG1a, Fc variant S434Y, S426L (antibody, part only; not given: anti-NGF variable domains, light chain, not shown: another chain or arm of the molecule; small tags and cut ends) Fc: PPEMLGGPSIFIFPPKPKDTLSISRTPEVTCLVVDLGPDDSDVQITWFVDNTQVYTAKTSPREEQFNSTYRVVSVLPILHQDWLKGKEFKCKVNSKSLPSPIERTISKAKGQPHEPQVYVLPPAQEELSRNKVSVTCLIKSFHPPDIAVEWEITGQPEPENNYRTTPPQLDSDGTYFVYSKLSVDRSHWQRGNTYTCLVSHEALHYHHTQKSLTQSPGK", "unit.string": "nM", "Kd": 3}
{"binder": "anti-NGF feline IgG1a, Fc variant S434Y, T289K (antibody, part only; not given: Anti-NGF variable domains, not shown: another chain or arm of the molecule; small tags and cut ends) Fc: PPEMLGGPSIFIFPPKPKDTLSISRTPEVTCLVVDLGPDDSDVQITWFVDNTQVYTAKKSPREEQFNSTYRVVSVLPILHQDWLKGKEFKCKVNSKSLPSPIERTISKAKGQPHEPQVYVLPPAQEELSRNKVSVTCLIKSFHPPDIAVEWEITGQPEPENNYRTTPPQLDSDGTYFVYSKLSVDRSHWQRGNTYTCSVSHEALHYHHTQKSLTQSPGK", "unit.string": "nM", "Kd": 3.6}
